Listed here: molecules with reported pKd for UniProt:Q13546.
Sequence (Q13546 whole entry): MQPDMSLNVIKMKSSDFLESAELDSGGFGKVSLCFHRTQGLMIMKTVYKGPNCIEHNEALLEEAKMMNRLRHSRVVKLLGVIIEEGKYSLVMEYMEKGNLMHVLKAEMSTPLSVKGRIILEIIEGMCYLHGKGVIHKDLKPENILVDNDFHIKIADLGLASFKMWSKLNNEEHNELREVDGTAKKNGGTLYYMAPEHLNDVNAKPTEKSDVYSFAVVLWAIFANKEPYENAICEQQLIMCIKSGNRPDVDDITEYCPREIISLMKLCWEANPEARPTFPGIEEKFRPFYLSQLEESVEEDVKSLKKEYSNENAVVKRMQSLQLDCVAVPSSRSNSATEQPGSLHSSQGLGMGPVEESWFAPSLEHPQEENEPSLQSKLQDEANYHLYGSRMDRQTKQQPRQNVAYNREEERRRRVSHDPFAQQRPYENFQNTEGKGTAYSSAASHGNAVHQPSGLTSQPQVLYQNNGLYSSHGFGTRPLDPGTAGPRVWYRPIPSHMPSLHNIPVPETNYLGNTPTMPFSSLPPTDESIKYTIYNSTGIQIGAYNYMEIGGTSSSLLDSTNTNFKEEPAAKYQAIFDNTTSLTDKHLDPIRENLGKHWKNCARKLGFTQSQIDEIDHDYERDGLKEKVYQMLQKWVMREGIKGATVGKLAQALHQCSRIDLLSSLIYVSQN
pKd: −log10 of the molar value.

# annotated cases, reported pKd shown
C[C@H](Oc1cc(-c2nn(C)c3c(-c4cnn(C5CCC(F)(F)C5)c4)cnc(N)c23)ccc1NS(=O)(=O)C(F)F)c1ccc(F)cc1 (stereo partly drawn) :: < 5.00
C[C@H](Oc1cc(-c2nn(C)c3c(-c4cnn(C5CC6(CNC6)C5)c4)cnc(N)c23)ccc1NS(=O)(=O)C(F)F)c1ccc(F)cc1 :: < 5.00

Q: Endpoint output: pKd of `Nc1n[nH]c2ccnc(-c3ccc(NS(=O)(=O)C(F)F)c(OCc4ccc(F)cc4)c3)c12` . Value?
Result: < 5.00

* * *

We begin with a simple list: items and their reported pKd.
- Target entity: human MLKL (full length) (Homo sapiens (Human), UniProt Q8NB16)
- Sequence (Q8NB16 whole entry): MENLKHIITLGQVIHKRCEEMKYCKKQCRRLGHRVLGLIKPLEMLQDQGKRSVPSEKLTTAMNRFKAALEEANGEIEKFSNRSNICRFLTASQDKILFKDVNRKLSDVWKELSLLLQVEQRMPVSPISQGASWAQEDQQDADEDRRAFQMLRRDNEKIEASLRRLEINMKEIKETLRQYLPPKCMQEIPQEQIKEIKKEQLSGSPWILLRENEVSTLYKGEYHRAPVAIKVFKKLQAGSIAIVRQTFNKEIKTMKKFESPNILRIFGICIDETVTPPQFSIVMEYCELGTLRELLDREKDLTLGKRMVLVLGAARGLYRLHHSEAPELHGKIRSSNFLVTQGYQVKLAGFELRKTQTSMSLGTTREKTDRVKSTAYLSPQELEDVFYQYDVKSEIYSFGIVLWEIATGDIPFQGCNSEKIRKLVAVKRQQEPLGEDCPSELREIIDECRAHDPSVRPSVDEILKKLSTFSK
pKd: −log10 of the molar value.

Q: Endpoint output: pKd of `C[C@H](Oc1cc(-c2nn(C)c3c(-c4cnc(N(C)C)nc4)cnc(N)c23)ccc1NS(=O)(=O)C(F)F)c1ccc(F)cc1` . Value?
Result: 7.00 to 9.00

Q: Queued: `C[C@H](Oc1cc(-c2nn(C)c3c(-c4cnn(C5CC(C)(C)N(C)C(C)(C)C5)c4)cnc(N)c23)ccc1NS(=O)(=O)C(F)F)c1ccc(F)cc1`
Result: > 9.00

Q: Queued: `C[C@H](Oc1cc(-c2nn(C)c3c(-c4cnn(C5CCOCC5)c4)cnc(N)c23)ccc1NS(C)(=O)=O)c1ccc(F)cc1`
Result: 7.00 to 9.00

Q: Queued: `C[C@H](Oc1cc(-c2nn(C)c3c(-c4cnn(CC(F)(F)F)c4)cnc(N)c23)ccc1NS(=O)(=O)C(F)F)c1ccc(F)cc1`
Result: 7.00 to 9.00

Q: Queued: `C[C@H](Oc1cc(-c2nn(C)c3c(-c4cnn5c4CNCC5)cnc(N)c23)ccc1NS(=O)(=O)C(F)F)c1ccc(F)cc1`
Result: 7.00 to 9.00

Q: Queued: `Cn1nc(-c2ccc(NS(=O)(=O)C(F)F)c(OCc3nccs3)c2)c2c(N)ncc(-c3cnn(C4CCOCC4)c3)c21`
Result: > 9.00

* * *

Listed here: molecules with reported Kd for human MLKL (full length) (Homo sapiens (Human)).

CC(C)n1nc(-c2ccc(NS(=O)(=O)C(F)F)c(O[C@@H](C)c3ccc(F)cc3)c2)c2c(N)ncc(-c3cnn(C)c3)c21 [Compound 52] :: 1 to 100 nM
C[C@H](Oc1cc(-c2nn(C)c3c(-c4cnn(C5CCOCC5)c4)cnc(N)c23)ccc1NS(=O)(=O)C(F)F)c1ccc(F)cc1 [Compound 19] :: < 1 nM
C[C@H](Oc1cc(-c2nn(C)c3c(-c4ccnc(N(C)C)c4)cnc(N)c23)ccc1NS(=O)(=O)C(F)F)c1ccc(F)cc1 [Compound 49] :: 1 to 100 nM
C[C@H](Oc1cc(-c2nn(C)c3c(-c4cnn(CCN5CC(C)(C)C5)c4)cnc(N)c23)ccc1NS(=O)(=O)C(F)F)c1ccc(F)cc1 [Compound 75] :: < 1 nM

Q: Endpoint output: Kd of C[C@H](Oc1cc(-c2nn(C)c3c(-c4cnn(C5CCNCC5)c4)cnc(N)c23)ccc1NS(=O)(=O)C(F)F)c1ccc(F)cc1 [Compound 59] . Value?
Result: < 1 nM

Q: Queued: CC(=O)N1CCC(n2cc(-c3cnc(N)c4c(-c5ccc(NS(=O)(=O)C(F)F)c(O[C@@H](C)c6ccc(F)cc6)c5)nn(C)c34)cn2)CC1 [Compound 109]
Result: < 1 nM

* * *

- Target entity: UniProt Q9Y572
Property label: Kd

# annotated cases, reported Kd shown
C[C@H](Oc1cc(-c2nn(C)c3c(-c4cc(C#N)n(C)c4)cnc(N)c23)ccc1NS(=O)(=O)C(F)F)c1ccc(F)cc1 :: > 10 µM
Cc1c(-c2cnc(N)c3c(-c4ccc(NS(=O)(=O)C(F)F)c(O[C@@H](C)c5ccc(F)cc5)c4)nn(C)c23)cnn1C1CCN(C)C(C)(C)C1 (stereo partly drawn) :: > 10 µM

We now examine a further compound.
Q: Endpoint output: Kd of `C[C@H](Oc1cc(-c2nn(C)c3c(-c4cnn(CCN5CCN(C)CC5)c4)cnc(N)c23)ccc1NS(=O)(=O)C(F)F)c1ccc(F)cc1` . Value?
Result: > 10 µM

* * *

Listed here: compounds with reported pKd for human MLKL (full length) (Homo sapiens (Human)).
pKd: −log10 of the molar value.

# annotated cases, reported pKd shown
C[C@H](Oc1cc(-c2nn(C)c3c(-c4cnc(N5CCN(C)CC5)nc4)cnc(N)c23)ccc1NS(=O)(=O)C(F)F)c1ccc(F)cc1 [Compound 105] :: > 9.00
C[C@H](Oc1cc(-c2nn(C)c3c(-c4ccnc(C(F)F)c4)cnc(N)c23)ccc1NS(=O)(=O)C(F)F)c1ccc(F)cc1 [Compound 57] :: 7.00 to 9.00
C[C@H](Oc1cc(-c2nn(C)c3c(-c4cnn(C5CCOCC5)c4)cnc(N)c23)ccc1NS(=O)(=O)N(C)C)c1ccc(F)cc1 [Compound 124] :: 5.00 to 7.00
C[C@H](Oc1cc(-c2nn(C)c3c(-c4cnn(C5(CN)CC5)c4)cnc(N)c23)ccc1NS(=O)(=O)C(F)F)c1ccc(F)cc1 [Compound 89] :: > 9.00
C[C@H](Oc1cc(-c2nn(C)c3c(-c4cnn(C5CCN(C)C(C)(C)C5)c4)cnc(N)c23)ccc1NS(=O)(=O)C(F)F)c1ccc(F)cc1 (single isomer, unassigned) [Compound 113] :: > 9.00

We now examine a further compound.
Q: Endpoint output: pKd of CCS(=O)(=O)Nc1ccc(-c2cnn3ccnc(N)c23)cc1OCc1ccc(F)cc1 [Compound 64] . Value?
Result: 5.00 to 7.00

* * *

Listed here: compounds with reported pKd for human MLKL (full length) (Homo sapiens (Human), UniProt Q8NB16).
pKd: −log10 of the molar value.

# annotated cases, reported pKd shown
C[C@H](Oc1cc(-c2nn(C)c3ccnc(N)c23)ccc1NS(=O)(=O)C(F)F)c1ccc(F)cc1 :: > 9.00
C[C@H](Oc1cc(-c2cnn3c(-c4cnn(C)c4)cnc(N)c23)ccc1NS(=O)(=O)C(F)F)c1ccc(F)cc1 :: > 9.00
CC1C(n2cc(-c3cnc(N)c4c(-c5ccc(NS(=O)(=O)C(F)F)c(O[C@@H](C)c6ccc(F)cc6)c5)nn(C)c34)cn2)CN1C (stereo partly shown) :: 7.00 to 9.00

Q: Endpoint output: pKd of `C[C@H](Oc1cc(-c2nn(C)c3c(-c4cnn(C5CCOCC5)c4)cnc(N)c23)ccc1NS(=O)(=O)CC(F)(F)F)c1ccc(F)cc1` . Value?
Result: 7.00 to 9.00

Q: Queued: `C[C@H](Oc1cc(-c2nn(C)c3c(-c4ccc(C(F)(F)F)nc4)cnc(N)c23)ccc1NS(=O)(=O)C(F)F)c1ccc(F)cc1`
Result: 7.00 to 9.00

Q: Queued: `C[C@H](Oc1cc(-c2nn(C)c3c(-c4cnn(C5CCCC5)c4)cnc(N)c23)ccc1NS(=O)(=O)C(F)F)c1ccc(F)cc1`
Result: 7.00 to 9.00

Q: Queued: `C[C@H](Oc1cc(-c2nn(C)c3c(-c4cnn(C5CCOCC5)c4)cnc(N)c23)ccc1NS(=O)(=O)C(F)F)c1cccc(Cl)c1`
Result: > 9.00

Q: Queued: `C[C@H](Oc1cc(-c2nn(C)c3c(-c4cnn(C5CCN(CC(F)(F)F)CC5)c4)cnc(N)c23)ccc1NS(=O)(=O)C(F)F)c1ccc(F)cc1`
Result: 7.00 to 9.00

Q: Queued: `Cn1nc(-c2ccc(NS(=O)(=O)C(F)F)c(OCc3cccc(Cl)c3)c2)c2c(N)ncc(-c3cnn(C4CCOCC4)c3)c21`
Result: > 9.00

Q: Queued: `COC[C@H](Oc1cc(-c2nn(C)c3c(-c4cnn(C5CCOCC5)c4)cnc(N)c23)ccc1NS(=O)(=O)C(F)F)c1ccc(F)cc1`
Result: 7.00 to 9.00

Q: Queued: C[C@H](Oc1cc(-c2nn(C)c3c(-c4cnn(C5CCC(C)(C)N(C)C5)c4)cnc(N)c23)ccc1NS(=O)(=O)C(F)F)c1ccc(F)cc1 (stereo partly shown)
Result: > 9.00

Q: Queued: `C[C@H](Oc1cc(-c2nn(C)c3c(C4CCN(C)CC4)cnc(N)c23)ccc1NS(=O)(=O)C(F)F)c1ccc(F)cc1`
Result: 5.00 to 7.00

Q: Queued: C[C@H](Oc1cc(-c2nn(C)c3c(-c4cnn(C5CCOCC5)c4)cnc(N)c23)ccc1NS(=O)(=O)Cc1ccccc1)c1ccc(F)cc1 [Compound 125]
Result: 7.00 to 9.00

* * *

We begin with a simple list: items and their reported Kd.
- Target entity: human RIPK3 (Homo sapiens (Human))
- Sequence (Q9Y572 whole entry): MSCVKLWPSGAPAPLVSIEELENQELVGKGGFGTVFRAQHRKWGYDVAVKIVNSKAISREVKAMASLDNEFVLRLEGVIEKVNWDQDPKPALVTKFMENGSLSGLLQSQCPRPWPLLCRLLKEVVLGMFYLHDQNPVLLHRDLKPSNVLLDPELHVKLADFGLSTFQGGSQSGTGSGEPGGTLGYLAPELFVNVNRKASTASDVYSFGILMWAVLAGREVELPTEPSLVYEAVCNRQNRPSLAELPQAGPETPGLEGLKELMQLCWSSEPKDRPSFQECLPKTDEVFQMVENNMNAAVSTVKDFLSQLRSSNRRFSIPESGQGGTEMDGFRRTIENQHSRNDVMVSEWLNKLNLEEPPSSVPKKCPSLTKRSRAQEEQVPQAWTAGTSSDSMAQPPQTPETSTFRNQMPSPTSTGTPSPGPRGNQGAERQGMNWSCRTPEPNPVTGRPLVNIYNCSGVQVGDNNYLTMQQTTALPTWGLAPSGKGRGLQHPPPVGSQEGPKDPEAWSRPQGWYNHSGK

# annotated cases, reported Kd shown
C[C@H](Oc1cc(-c2nn(C)c3c(-c4cnn(C5CCOCC5)c4)cnc(N)c23)ccc1NS(=O)(=O)C(F)F)c1cccc(Cl)c1 [Compound 122] :: > 10 µM
C[C@H](Oc1cc(-c2nn(C)c3c(-c4cnn(C5CCCC5)c4)cnc(N)c23)ccc1NS(=O)(=O)C(F)F)c1ccc(F)cc1 [Compound 30] :: > 10 µM

Q: Endpoint output: Kd of C[C@H](Oc1cc(-c2nn(C)c3c(-c4cnn(C5CCN(C)C(C)(C)C5)c4)cnc(N)c23)ccc1NS(=O)(=O)C(F)F)c1ccc(F)cc1 (single isomer, unassigned) [Compound 154] . Value?
Result: > 10 µM

Where do these numbers come from? They come from patent US20250059188A1.
